Numbers sourced from ChEMBL document CHEMBL1201862.

system: RXF 393; experiment: NCI tumour cell line growth inhibition, 48 h
The source made the active and inactive calls. Cut-off read from the data, not from the text of the source: active = GI50 up to about 1.1 µM and inactive = higher.
Result type: GI50

Below are worked cases with known answers.
molecule=O=C1C[C@H](c2ccc(O)c(O)c2)Oc2cc(O)cc(O)c21 target_of_assay="RXF 393" recorded_value="> 100 µM (inactive)"
molecule=COC(=O)[C@@]12CC3CN(Cc4c1[nH]c1ccccc41)C2CC3=O target_of_assay="RXF 393" recorded_value="> 100 µM (inactive)"
molecule="N#C[BH2-][n+]1cn(C2CC(OP(=O)(O)OCC3OC(n4cnc5c(N)ncnc54)CC3O)C(CO)O2)c2nc(N)[nH]c(=O)c21 (stereo not given)" target_of_assay="RXF 393" recorded_value="> 100 µM (inactive)"

Request: GI50, test system RXF 393, entry OCCc1ccsc1-c1sc(-c2cc(CCO)c(-c3sccc3CCO)s2)cc1CCO
2.77 µM (inactive)

Moving on to the next molecule: CC[N+]1(C)CCC(O)(c2ccccc2)C(C(=O)c2ccccc2)C1 (stereo not given)
12.4 µM (inactive)
